Biological target: T1, HNRNPF (UniProt P52597 1-415)
T1 sequence: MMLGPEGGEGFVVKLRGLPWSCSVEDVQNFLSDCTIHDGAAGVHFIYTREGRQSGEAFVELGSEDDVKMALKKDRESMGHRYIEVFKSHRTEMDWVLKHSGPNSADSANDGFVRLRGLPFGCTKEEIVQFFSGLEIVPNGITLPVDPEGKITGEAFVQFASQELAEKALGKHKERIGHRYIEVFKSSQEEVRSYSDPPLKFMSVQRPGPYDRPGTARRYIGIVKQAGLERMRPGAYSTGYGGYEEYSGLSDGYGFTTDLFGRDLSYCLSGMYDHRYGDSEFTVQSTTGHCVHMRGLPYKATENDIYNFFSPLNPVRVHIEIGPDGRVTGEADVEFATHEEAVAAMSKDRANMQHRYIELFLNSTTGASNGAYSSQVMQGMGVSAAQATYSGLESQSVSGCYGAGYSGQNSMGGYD
Test: BLI; 150 mM KCl; BLI: 10 mM Tris-HCl pH 7.4, 150 mM KCl, 0.005% P-20, 1 mM EDTA; EMSA: 10 mM Tris-HCl pH 7.4, 1 mM EDTA, 150 mM KCl, room temp, 3 nM RNA; FRET: same Tris/EDTA with 25 mM KCl, room temp
Settings: protein: recombinant; label: 5'-biotin; parallel two-tier G4, intramolecular
pKd: −log10 of the molar value.
Here, each record is paired with measured pKd data.
property name: pKd

binder	property name	assay result
ACCGGGGCAGGGGAAGAGGGGGAUU (structured_RNA) [rG1]	pKd	9.47
GGGCGGGGAGGAGGACGCGGUGGAAUGGG (structured_RNA) [rG3]	pKd	9.46
